Values from ChEMBL document CHEMBL4425136

Molecular target: UniProt P30530
Sequence (P30530 whole entry): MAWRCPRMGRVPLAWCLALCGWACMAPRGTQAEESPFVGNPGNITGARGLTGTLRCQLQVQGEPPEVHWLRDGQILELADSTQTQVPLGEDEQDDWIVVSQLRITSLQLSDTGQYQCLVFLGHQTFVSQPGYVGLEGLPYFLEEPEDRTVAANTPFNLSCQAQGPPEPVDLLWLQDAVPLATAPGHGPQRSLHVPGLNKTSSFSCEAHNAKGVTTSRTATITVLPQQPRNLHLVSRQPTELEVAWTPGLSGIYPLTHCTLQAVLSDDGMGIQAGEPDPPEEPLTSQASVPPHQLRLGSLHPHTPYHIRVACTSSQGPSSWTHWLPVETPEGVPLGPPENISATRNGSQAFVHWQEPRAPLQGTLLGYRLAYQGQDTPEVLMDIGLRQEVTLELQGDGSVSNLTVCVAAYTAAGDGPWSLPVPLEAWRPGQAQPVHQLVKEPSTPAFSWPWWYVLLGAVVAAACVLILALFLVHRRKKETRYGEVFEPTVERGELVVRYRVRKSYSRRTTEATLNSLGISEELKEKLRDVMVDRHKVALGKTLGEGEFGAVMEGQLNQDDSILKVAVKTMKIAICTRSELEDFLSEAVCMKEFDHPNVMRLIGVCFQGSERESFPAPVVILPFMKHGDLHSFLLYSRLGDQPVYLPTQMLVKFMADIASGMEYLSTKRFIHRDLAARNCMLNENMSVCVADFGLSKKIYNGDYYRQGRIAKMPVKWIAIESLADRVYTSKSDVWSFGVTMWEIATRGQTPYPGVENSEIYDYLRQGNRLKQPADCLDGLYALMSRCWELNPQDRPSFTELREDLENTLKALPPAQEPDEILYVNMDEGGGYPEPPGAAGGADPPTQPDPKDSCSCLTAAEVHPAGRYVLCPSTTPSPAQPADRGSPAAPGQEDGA
Assay: Inhibition of human recombinant AXL incubated for 1 to 1.5 hrs by FRET based Z'-Lyte kinase assay
pIC50: −log10 of the molar value.
property: pIC50

I = C=C(C)c1ccc2c(c1)c(=O)c(C(=O)Nc1ccc(Oc3ncnc4[nH]cc(-c5ccccc5)c34)c(F)c1)c(C)n2C
II = Cc1c(C(=O)Nc2ccc(Oc3ncnc4[nH]cc(-c5ccccc5)c34)c(F)c2)c(=O)c2cc(OC(F)(F)F)ccc2n1C
Enquiry: Smaller pIC50 value? Options are I and II Give the chosen item's label as your response.
Return: I
